Attribution: patent US20150246136A1

- target.desc: Mesothelin (SwissProt reference Q13421-3) (Homo sapiens, UniProt Q13421 37-622)
- assay.procedure: cell-based or functional assay
Rule: IC50 (nM), HT29 meso+ cells, MTT proliferation assay below 0.5 nM gives 1, anything at or above gives 0.

{"columns": ["binder", "answer.label"],
 "data": [
  ["Example 69, conjugate of anti-mesothelin antibody MF-Ta (antibody, human IgG1, lambda, V domains shown, toxophore-linker on Cys sulfur, sites not given) VH: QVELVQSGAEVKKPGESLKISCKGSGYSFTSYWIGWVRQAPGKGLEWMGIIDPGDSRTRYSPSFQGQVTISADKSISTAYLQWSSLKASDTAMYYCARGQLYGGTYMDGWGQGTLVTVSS VL: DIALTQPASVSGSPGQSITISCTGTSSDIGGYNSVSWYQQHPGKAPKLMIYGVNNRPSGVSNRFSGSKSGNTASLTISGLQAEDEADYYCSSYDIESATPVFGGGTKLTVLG", 1],
  ["Example 154, conjugate of anti-mesothelin antibody MF-Ta (antibody, human IgG1, lambda, V domains shown, toxophore-linker on Cys sulfur, sites not given) VH: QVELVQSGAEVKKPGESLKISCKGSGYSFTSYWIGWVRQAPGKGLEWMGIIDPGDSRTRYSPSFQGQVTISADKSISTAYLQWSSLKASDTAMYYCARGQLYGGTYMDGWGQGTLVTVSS VL: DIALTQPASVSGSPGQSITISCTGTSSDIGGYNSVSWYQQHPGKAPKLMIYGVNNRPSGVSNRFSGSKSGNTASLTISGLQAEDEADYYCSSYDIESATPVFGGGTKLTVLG", 0],
  ["Example 134, conjugate of anti-mesothelin antibody MF-Ta (antibody, human IgG1, lambda, V domains shown, toxophore-linker on Cys sulfur, sites not given) VH: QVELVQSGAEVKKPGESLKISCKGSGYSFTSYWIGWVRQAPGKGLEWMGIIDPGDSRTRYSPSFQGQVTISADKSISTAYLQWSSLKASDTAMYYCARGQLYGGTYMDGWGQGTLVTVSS VL: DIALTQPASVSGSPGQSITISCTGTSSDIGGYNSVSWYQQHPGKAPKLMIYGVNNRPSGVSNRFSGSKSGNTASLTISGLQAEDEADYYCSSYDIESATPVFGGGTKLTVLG", 1],
  ["Example 61, conjugate of anti-mesothelin antibody MF-Ta (antibody, human IgG1, lambda, V domains shown, toxophore-linker on Cys sulfur, sites not given) VH: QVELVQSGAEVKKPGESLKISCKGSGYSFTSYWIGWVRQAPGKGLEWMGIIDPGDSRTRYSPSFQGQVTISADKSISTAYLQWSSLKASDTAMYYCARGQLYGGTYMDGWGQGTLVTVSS VL: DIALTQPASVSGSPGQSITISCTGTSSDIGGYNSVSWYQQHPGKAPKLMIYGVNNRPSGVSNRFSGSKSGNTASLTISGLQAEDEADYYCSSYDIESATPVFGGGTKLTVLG", 1],
  ["Example 86, conjugate of anti-mesothelin antibody MF-Ta (antibody, human IgG1, lambda, V domains shown, toxophore-linker on Cys sulfur, sites not given) VH: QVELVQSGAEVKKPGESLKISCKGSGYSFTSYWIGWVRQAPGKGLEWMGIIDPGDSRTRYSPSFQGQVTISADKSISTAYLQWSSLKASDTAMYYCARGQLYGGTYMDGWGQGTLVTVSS VL: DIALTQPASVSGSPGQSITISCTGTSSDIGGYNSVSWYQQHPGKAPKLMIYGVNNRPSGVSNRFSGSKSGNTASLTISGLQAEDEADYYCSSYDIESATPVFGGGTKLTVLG", 1],
  ["Example 77, conjugate of anti-mesothelin antibody MF-Ta (antibody, human IgG1, lambda, V domains shown, toxophore-linker on Cys sulfur, sites not given) VH: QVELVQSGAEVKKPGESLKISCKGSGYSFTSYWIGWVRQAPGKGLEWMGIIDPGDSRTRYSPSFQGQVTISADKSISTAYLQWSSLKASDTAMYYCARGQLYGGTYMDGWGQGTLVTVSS VL: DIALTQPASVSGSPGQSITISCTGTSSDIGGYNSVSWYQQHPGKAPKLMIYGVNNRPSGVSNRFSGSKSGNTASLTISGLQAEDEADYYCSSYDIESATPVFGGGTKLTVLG", 0],
  ["Example 149, conjugate of anti-mesothelin antibody MF-Ta (antibody, human IgG1, lambda, V domains shown, toxophore-linker on Lys NH, sites not given) VH: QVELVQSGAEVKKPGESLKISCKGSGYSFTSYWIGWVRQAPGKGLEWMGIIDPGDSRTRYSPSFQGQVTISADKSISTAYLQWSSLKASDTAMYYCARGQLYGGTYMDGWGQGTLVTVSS VL: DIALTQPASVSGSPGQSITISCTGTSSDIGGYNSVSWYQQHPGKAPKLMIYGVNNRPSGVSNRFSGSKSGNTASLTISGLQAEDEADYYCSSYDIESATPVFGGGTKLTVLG", 0],
  ["Example 106, conjugate of anti-mesothelin antibody MF-Ta (antibody, human IgG1, lambda, V domains shown, toxophore-linker on Cys sulfur, sites not given) VH: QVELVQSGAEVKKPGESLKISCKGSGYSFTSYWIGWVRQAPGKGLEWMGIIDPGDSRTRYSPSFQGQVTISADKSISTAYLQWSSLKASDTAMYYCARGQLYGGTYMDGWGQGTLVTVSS VL: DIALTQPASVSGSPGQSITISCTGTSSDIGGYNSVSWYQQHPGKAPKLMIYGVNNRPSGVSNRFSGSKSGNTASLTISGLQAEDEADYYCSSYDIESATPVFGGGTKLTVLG", 0],
  ["Example 150, conjugate of anti-mesothelin antibody MF-Ta (antibody, human IgG1, lambda, V domains shown, toxophore-linker on Lys NH, sites not given) VH: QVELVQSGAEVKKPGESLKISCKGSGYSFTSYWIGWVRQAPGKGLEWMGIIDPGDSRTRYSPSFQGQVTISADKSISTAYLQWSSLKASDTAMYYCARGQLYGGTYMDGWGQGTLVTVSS VL: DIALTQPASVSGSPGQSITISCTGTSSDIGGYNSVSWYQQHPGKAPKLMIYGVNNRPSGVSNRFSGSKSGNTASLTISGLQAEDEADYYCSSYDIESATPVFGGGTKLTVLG", 1]
]}
